# SYSTEM: his-labeled human IL-13 (immunogen A) (human) (UniProt P35225)
# METHOD: cell-based or functional assay
ASSAY READOUT: TARC (pg/mL), A549 cells + IL-13 5 ng/mL + TNFα; antibody at 66.7 nM
Please state the figure in pg/mL; there is no need to write the unit.

Below: 3 binders and their reported TARC (pg/mL), A549 cells + IL-13 5 ng/mL + TNFα; antibody at 66.7 nM.
[
  {
    "BINDER": "70F10A10 (lead antibody, mouse hybridoma) (antibody, V domains shown) VH: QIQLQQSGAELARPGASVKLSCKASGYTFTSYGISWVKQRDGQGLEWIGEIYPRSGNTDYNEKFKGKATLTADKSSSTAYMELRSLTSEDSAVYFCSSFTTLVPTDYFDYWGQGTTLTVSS VL: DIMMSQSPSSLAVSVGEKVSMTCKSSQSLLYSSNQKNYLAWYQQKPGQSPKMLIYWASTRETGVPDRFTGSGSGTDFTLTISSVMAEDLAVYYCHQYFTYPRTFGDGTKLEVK",
    "UNITS TEXT": "pg/mL",
    "TEST VALUE": 207
  },
  {
    "BINDER": "29D9H8 (lead antibody, mouse hybridoma) (antibody, V domains shown, Mouse monoclonal antibody purified from hybridoma supernatant on Protein G) VH: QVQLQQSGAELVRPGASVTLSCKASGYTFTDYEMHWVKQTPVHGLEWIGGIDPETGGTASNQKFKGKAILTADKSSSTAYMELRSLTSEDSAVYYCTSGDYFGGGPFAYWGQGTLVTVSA VL: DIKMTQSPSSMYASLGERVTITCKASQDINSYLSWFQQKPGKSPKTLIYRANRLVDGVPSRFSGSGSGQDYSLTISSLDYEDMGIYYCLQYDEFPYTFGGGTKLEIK",
    "UNITS TEXT": "pg/mL",
    "TEST VALUE": 42
  },
  {
    "BINDER": "28A2E11 (lead antibody, mouse hybridoma) (antibody, V domains shown, Mouse monoclonal antibody purified from hybridoma supernatant on Protein G) VH: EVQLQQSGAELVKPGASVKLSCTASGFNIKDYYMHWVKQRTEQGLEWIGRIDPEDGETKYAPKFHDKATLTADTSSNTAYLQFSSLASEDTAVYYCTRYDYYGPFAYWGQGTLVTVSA VL: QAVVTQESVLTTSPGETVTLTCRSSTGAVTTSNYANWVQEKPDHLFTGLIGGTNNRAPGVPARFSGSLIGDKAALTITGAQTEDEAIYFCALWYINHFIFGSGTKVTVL",
    "UNITS TEXT": "pg/mL",
    "TEST VALUE": 56
  }
]

Let us move to another entry and its TARC (pg/mL), A549 cells + IL-13 5 ng/mL + TNFα; antibody at 66.7 nM.
Exam item: Supply recorded TARC (pg/mL), A549 cells + IL-13 5 ng/mL + TNFα; antibody at 66.7 nM for 35E2C3 (lead antibody, mouse hybridoma) (antibody, V domains shown, Mouse monoclonal antibody purified from hybridoma supernatant on Protein G) VH: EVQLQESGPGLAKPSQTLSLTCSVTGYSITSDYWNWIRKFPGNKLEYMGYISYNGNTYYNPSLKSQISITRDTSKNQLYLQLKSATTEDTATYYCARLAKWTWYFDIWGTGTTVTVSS VL: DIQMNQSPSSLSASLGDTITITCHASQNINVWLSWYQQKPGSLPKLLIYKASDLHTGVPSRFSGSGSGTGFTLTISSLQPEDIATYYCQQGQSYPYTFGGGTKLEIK here.
Marked response: 67
